Reference source for all entries: patent US20080267971A1

Each entry below carries its recorded koff.
Target: T1, human Angiopoietin-2 (human, UniProt O15123 19-496)
T1 construct: Mostly bought recombinant protein (R&D Systems 623-AM/CF, 623-AN; biotinylated BT623) or supernatant of transfected 293F cells; also called Ang-2; rhAng-2
T1 sequence: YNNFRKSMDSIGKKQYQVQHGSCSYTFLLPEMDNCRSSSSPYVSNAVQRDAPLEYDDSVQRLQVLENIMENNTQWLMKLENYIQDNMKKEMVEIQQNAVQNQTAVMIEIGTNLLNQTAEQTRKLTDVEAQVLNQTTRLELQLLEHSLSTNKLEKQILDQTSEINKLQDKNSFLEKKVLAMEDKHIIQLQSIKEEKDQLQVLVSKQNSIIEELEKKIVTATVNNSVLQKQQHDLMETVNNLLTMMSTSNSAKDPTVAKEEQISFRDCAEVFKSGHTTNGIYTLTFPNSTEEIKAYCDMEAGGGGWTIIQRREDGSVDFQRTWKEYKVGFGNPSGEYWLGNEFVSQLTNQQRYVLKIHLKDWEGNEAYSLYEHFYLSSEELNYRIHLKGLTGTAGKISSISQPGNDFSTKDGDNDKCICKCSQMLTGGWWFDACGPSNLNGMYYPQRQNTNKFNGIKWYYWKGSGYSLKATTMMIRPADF
Experiment: Biacore; kd held constant (*)

Just so you know, measured koff for mAb 5.62.1 (antibody, V domains shown, Human hybridoma IgG (XenoMouse); also called x5.62) VH: EVQLVESGGGLVQPGGSLRLSCAASGFTFSSYWMSWVRQAPGKGLEWVANIKQDGSEKYYVDSVKGRFTISRDNAKNSLYLQMNSLRAEDTAVYYCARDPGIAVAGPFDYWGQGTLVTVSS VL: EIVMTQSPATLSVSPGERATLSCRASQSVSSNLAWYQQKPGQAPRLLIYGAFTRATGIPARFSGSGSGTEFTLTISSLQSEDFAVYYCQQYNHWWTFGQGTKVGIKR came out at ≤ 1e-05 s⁻¹

Value of koff reported for the binder mAb 5.35.1 (antibody, V domains shown, Human hybridoma IgG (XenoMouse); also called x5.35) VH: EVQLVESGGGVVRPGGSLRLSCTTSGFTFDDYGMSWVRQAPGKGLEWVSGINWNGGSTVYADSVKGRFTISRDSAKNSLYLQMNSLRAEDTALYHCARNKQWLWYFDLWGRGTLVTVSS VL: EIVMTQSPATLSVSPGERATLSCRASQSVSSNLAWYQQKPGQAPRLLIYGASTRATGIPARFSGSGSGTEFTLTISSLQSEDFAVYYCEQYNNWPLTFGGGTKVEIKR is ≤ 1e-05 s⁻¹
